Molecular target: P. falciparum 3D7A growth, LDH activity
Assay: parasite LDH-based blood-stage antimalarial activity – strain 3D7A, LDH readout, dose response (AID 2060598)
Details: restricted media, 72 h
Measured IC50 accompanies every entry in the list below.
Quantity name: IC50

{"Compound": "CCCOc1cncc(S(=O)(=O)c2ccc3c(c2)CCN(C2CCC2)CC3)c1", "Measured result": "316 nM"}
{"Compound": "O=C(/C=C/c1n[nH]c2ccccc12)N1CCN(c2cnccn2)CC1", "Measured result": "158 nM"}
{"Compound": "Cc1nn(C2CCS(=O)(=O)C2)c(C)c1CN(C)C(=O)CN1C(=O)NC2(CCCCC2C)C1=O (stereo not drawn)", "Measured result": "63.1 nM"}
{"Compound": "O=C(Nc1nnc(-c2ccccc2)s1)N1CCCN(c2ncccn2)CC1", "Measured result": "20 nM"}
{"Compound": "NC(=O)CC1CCN(C(=O)c2sc3sccc3c2Cl)CC1", "Measured result": "316 nM"}
{"Compound": "O=C1CSc2ccc(C(=O)Nc3ccc(-c4nnc5n4CCCCC5)cc3)cc2N1", "Measured result": "501 nM"}
{"Compound": "O=C(CCCc1c[nH]c2ccccc12)N1CCN(c2ccc(N3CCOCC3)nn2)CC1", "Measured result": "398 nM"}
{"Compound": "COc1ccc(C(=O)N2CCN(c3ccc(-n4cccn4)nn3)CC2)cc1OC", "Measured result": "126 nM"}
{"Compound": "COc1ccc(-c2ccc(CNC(=O)c3cc(C(=O)NC(C)C)ccc3Cl)cc2)cn1", "Measured result": "63.1 nM"}
{"Compound": "CN(C(=O)C[C@@H]1CCN(C(=O)C2CC2)C1)c1ccc(-c2ccc(C#N)cc2)cc1", "Measured result": "251 nM"}
{"Compound": "O=C(c1cc2ccccc2[nH]1)N1CCC2(CC(Nc3ccncn3)C2)C1 (stereo not drawn)", "Measured result": "31.6 nM"}
{"Compound": "O=C(CCN=C1NS(=O)(=O)c2ccccc21)Nc1ccc(S(=O)(=O)N2CCCC2)cc1", "Measured result": "794 nM"}
{"Compound": "N#Cc1cccc(NC(=O)CNc2ccccc2C(=O)NC2CC2)c1", "Measured result": "39.8 nM"}
{"Compound": "Cc1cccc(-c2nn(Cc3ccc(C(=O)NCCCO)cc3)c(=O)cc2N2CCCC(CO)C2)c1 (stereo not drawn)", "Measured result": "794 nM"}
{"Compound": "O=C(NCCCN1CCc2ccccc21)c1ccc2c(=O)n(Cc3ccccn3)cnc2c1", "Measured result": "63.1 nM"}
{"Compound": "Cn1cccc1C1CCCN1CC(=O)Nc1ccc(S(=O)(=O)N2CCOCC2)cc1 (stereo not drawn)", "Measured result": "794 nM"}
{"Compound": "N#Cc1c(N)n[nH]c1CCCNC(=O)c1ccc(Cl)c(S(=O)(=O)N2CCCC2)c1", "Measured result": "50.1 nM"}
{"Compound": "O=C(COc1ccc(Br)cc1F)N1CCN(c2cnccn2)CC1", "Measured result": "251 nM"}
{"Compound": "Cc1ccc2nc(CCNC(=O)CCS(=O)(=O)c3ccc4c(c3)CC(=O)N4C)[nH]c2c1", "Measured result": "31.6 nM"}
{"Compound": "O=C(/C=C/c1n[nH]c2ccccc12)Nc1ccc(C(=O)NCCN2CCOCC2)cc1", "Measured result": "316 nM"}
{"Compound": "O=C1CCCN1c1ccc(S(=O)(=O)N2CCN(S(=O)(=O)c3ccccc3)CC2)cc1", "Measured result": "501 nM"}
{"Compound": "COc1ccc2oc(C(=O)NC3CCC(Oc4ncccn4)CC3)cc2c1 (stereo not drawn)", "Measured result": "126 nM"}
{"Compound": "Cc1cc(-c2cnc(N3CCn4c(nnc4C4CC4)C3)nc2-c2ccncc2)on1", "Measured result": "100 nM"}
{"Compound": "CCN(CC)c1ccc(C(=O)COc2ccc3c(c2)CCNCC3)cc1", "Measured result": "63.1 nM"}
{"Compound": "COc1ccc(NC(=O)c2ccc3c(=O)n(Cc4ccccn4)cnc3c2)cc1N1CCN(C)CC1", "Measured result": "398 nM"}
{"Compound": "O=C(Nc1ccc(N2CCCC2)nc1)N1CCN(c2cnccn2)CC1", "Measured result": "79.4 nM"}
{"Compound": "COc1ccc(N2CCN(C(=O)c3csc(Nc4ccccc4S(C)(=O)=O)n3)CC2)nc1", "Measured result": "79.4 nM"}
{"Compound": "O=C(CCn1nnc2cc(S(=O)(=O)N3CCCC3)ccc21)N1CCN(c2ccccn2)CC1", "Measured result": "126 nM"}
{"Compound": "CC(C)Oc1ccc(-c2nnc(Oc3cccc4c3CCN(CCC(N)=O)CC4)s2)cc1C#N", "Measured result": "501 nM"}
{"Compound": "O=C(CCCc1ncc(-c2ccccc2)o1)N1CCOC2CCCC21 (stereo not drawn)", "Measured result": "158 nM"}
{"Compound": "CCN(C(=O)C=Cc1ccc(S(=O)(=O)N2CCc3ccccc32)cc1)C1CCS(=O)(=O)C1 (stereo not drawn)", "Measured result": "200 nM"}
{"Compound": "Cc1cc(Cl)ccc1OCC(=O)N1CCc2c(cnc(C)c2CNC(=O)c2ccc(=O)[nH]n2)C1", "Measured result": "20 nM"}
{"Compound": "O=C(Nc1cccnc1)C1CCN(c2ccc(-c3ccco3)nn2)CC1", "Measured result": "794 nM"}

meta.source: PubChem BioAssay AID2060598
